- Test system: MS2 coat protein
- protocol-notes: apparent KD of MS2 coat protein; designed switch direction (-1 OFF switch, 1 ON switch): -1; higher = weaker reporter binding
- experimental-setup: input ligand: microRNA oligo, concentration not stated
reported-property: apparent KD of MS2 coat protein (nM)
Respond with the bare value in nM.

Example cases with answers are listed next.
Qu. Report the value of apparent KD of MS2 coat protein obtained on MS2 coat protein for GGUAACAUGAGGAUCACCCAUGUGAUACGUUACAUAUAAACCGAGGAUAUACCCUCAGAACGAGGGUAGAAGGUGGGACGACAC [Eternabot solution 8] (Eterna round: R96, puzzle: Exclusion NG 3) .
Ans. 51.6

Qu. Enter measured apparent KD of MS2 coat protein, system MS2 coat protein, for the sequence shown: GGAGGACGAGCAGGAUAUUUUCACAUGAGGAUCACCCAUGUGUACUCAGGGUAAUCCUCCGCCGAAAAGAAGGGUUCGGAAGAA [JL ViennaUCT Socedi mod 1] (Eterna round: R96, puzzle: Exclusion NG 2)
Ans. 33.2

Qu. State, for MS2 coat protein, measured apparent KD of MS2 coat protein of the sequence listed here: AGAGUGCUGCGAGGAUAUACAUGAGGAUCACCCAUGUUUUCGUGUGAGGCUUUGCCUCACACGAAGUAGAAGGCGCAGUACUCU [Mat - Exclusion NG 2 - Mod of JL - D31] (Eterna round: R96, puzzle: Exclusion NG 2)
Ans. 8.79

Let's switch to this sequence now.
Qu. Check MS2 coat protein data and give apparent KD of MS2 coat protein for AGCUGUGGCCGAGGAUAUCUAAACCUUCAAACCGAGGUAUACUCGGACAUGAGGAUCACCCAUGUAGAGAAGGCGGUCUCAGCA [Eli eng2 - 035] (Eterna round: R96, puzzle: Exclusion NG 2) .
Ans. 9.78

----------
- System: K4 kissing-loop RNA reporter;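 further: bound reporter read as fluorescence of individual clusters on recovered sequencing chips by microscopy, with normalized cluster intensities fitted with a binding model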
- protocol-notes: apparent KD of K4 kissing-loop reporter; higher = weaker reporter binding
- experimental-setup: Eterna round: R107; input ligand: FMN 200 uM
Measured apparent KD of K4 kissing-loop reporter by item
Provide the measurement as a number trailed by its unit.

Example entries and their recorded answers appear below.
Qu. Please indicate apparent KD of K4 kissing-loop reporter recorded for UGGUCUGCACGAAGGAGCGCCCUGACAGGUUGCUGCCGUGGGCAGUGAUGUUGCUUAGUCCGGCAGGUAGGUCGCGUGCAGACCA
Ans. 210 nM

Qu. Output measured apparent KD of K4 kissing-loop reporter for this item: GGUGAUGAGCACGAUACCAGCCUCGGAGCCAGUGAUGUUGGCCCAAUUUAAAAUAAGAUAGGCCCUUGGCAGCGUGACGAUGGCU [Rainle]
Ans. 727 nM

Qu. Tell me measured apparent KD of K4 kissing-loop reporter for AGAUCUGUAACAGAUACCAGAGGACGAUGAUCGGAUAGUGAUGUUAUCUGUCAGUCGUCGCUCCCUUGGCAGCUGUUACAGAUCA [Omei KL Theo B SS B v1] please.
Ans. 176 nM

Continuing:
Qu. Give apparent KD of K4 kissing-loop reporter for GGAUUGCCAGUGAUGUUGGCAUAAACUGAAGGAGCGCGUGAAAACGCAGGUAGGUCGCAGAACCUUGCCAACUGAUCGAAAGAUC [Ex Arginine A K4 29]
Ans. 123 nM

Qu. Look up and report measured apparent KD of K4 kissing-loop reporter for this entry: AAACAUCACUGGGAGUGAUGUUCUCAGUGACGAGGACCGGUACGGCCGCCACUCGCGAGAGAUAUAGAUAAGUAAUGACAUCAUU [Excl Tryptophan A V4]
Ans. 347 nM

Qu. Tell me measured apparent KD of K4 kissing-loop reporter for GUACGCUCCCGAGUGAUGUUCGGUAAUCGCGAGGAUAUCGCUUUUGCGAGAAGGCGCGGAAUGAGGAAACUCGUUCUGAGUGUAC [FMN A 25] please.
Ans. 234 nM

Qu. Find the measured apparent KD of K4 kissing-loop reporter of AGGCACGAGCAAGGAUAUCGAGUAGAGUGAUGUUCUGCCUGGGUUGGCGCGGAAGGGCCUUCCCAGCGAGAAGGUGCUCGUGCCU [#2 Same State - FMN A Attempt #10 (HarryS)] and report it.
Ans. 293 nM

Qu. Specify measured apparent KD of K4 kissing-loop reporter for CGCAGUGAUGUUGCGAGUAACUACAGGGAAGGAGCGUGCUAAAGCACAGGUAGGUCGCCCAUGCAGUGAUGUUGUGUAAAAGGGU [Excluson Arginine A GF 13] .
Ans. 102 nM

Qu. Identify measured apparent KD of K4 kissing-loop reporter associated with UGAUACCAGACGGCCGCCACUCCCGUAAGUCAAAGACUUACGAAGAGGGUUUUUUAGUGAUGUUGGAGGACCGGGUCUGGUAUCU [FiskerMod 18 - Jieux - Exclusion - Tryptophan B]
Ans. 618 nM

Qu. Identify apparent KD of K4 kissing-loop reporter associated with the sequence CGCAAGCAGCCAGUGAUGUUGGCCGCCUUGCGAGGACCGGUACGGCCGCCACUCGAAGGCGGCUACUGGUAAUCCGUCUAACGGA [Lareus]
Ans. 84.6 nM

Qu. Read the entry ACUGAAAGAUCUGAUACCAGACUUUUUGUAUUUAUUAAAACUAGUGAUGUUAGUUUAUCAGUCCCUUGGCAGCAGUUACUACAGA [JR_Nu_ExcTheophyB_Sub024] and write its reported apparent KD of K4 kissing-loop reporter.
Ans. 91 nM

Qu. Quote apparent KD of K4 kissing-loop reporter reported for CCUUCUCUUGAUAGUGAUGUUAUCAAGGGCAAGGAUAUCAUCUUAAUGAGAAGGUGUCCUUGAUAACAUGGAGGUCUGAAACAGA [Omei KL FMN A Exc C v5] please.
Ans. 108 nM

Qu. Using the record for CUUGAUGGAAACAUCGAGUAUUUCACUGAUACCAGUAUCGAUAGAUACCCUUGGCAGCAGGAUCAGUGUUUACGAGUGAUGUUCG [Ex Theophylline A K4 9] , state its measured apparent KD of K4 kissing-loop reporter.
Ans. 444 nM

Qu. Fill in reported apparent KD of K4 kissing-loop reporter for this entry: AAGUAGCUCUCGGCCGCCACUCCUCAGUGAUGUUGAGAUAUUAACUGCCAAUUGGCGUAUUUAAAGAGGACCGGGAGAGCUACAA [AK2 SS Tryptophan B]
Ans. 389 nM

Qu. Please list apparent KD of K4 kissing-loop reporter recorded for the sequence GUACCUUGGAAACAAGGACAGCUAACCGAAGGAGCGCGUGAAAACGCAGGUAGGUCGCGGUAGCGGAGUGAUGUUCCGCGAGAGC [Same State Arginine A GF 19]
Ans. 114 nM
